Data provenance is the supplement of paper PMC10567573.

B1: MMP1 (parent)
chain: FHGTRQYKFDPKTKRILTLQKANS

# Variants of: B1
# test name: protein stability index of a GFP-peptide fusion (GPS, HEK-293T) (PSI 1-6); higher = more stable;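 also: lentivirally expressed fusions sorted by FACS into six bins by GFP to DsRed ratio, PSI derived from sequencing read proportions per bin multiplied by bin number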
# run parameters: c terminus: a fixed tail appended
Please use 1.0 whenever protein stability index is not below 2, and 0.0 whenever it is.

H2K 1.0
A22E 1.0
T13F 0.0
F1C 1.0
P11I 1.0
F1N 1.0
K21C 1.0
L19D 1.0
N23I 1.0
H2M 1.0
F1V 1.0
K12F 1.0
L17E 0.0
T4E 1.0
A22F 0.0
T4R 1.0
Q6W 1.0
A22M 0.0
K12D 0.0
Q20D 0.0
Q6S 0.0
Q20W 1.0
A22Y 1.0
K8T 1.0
T13M 0.0
T18M 0.0
Q6L 0.0
H2R 1.0
Q20V 0.0
L19E 0.0
Q6V 1.0
G3K 0.0
T13P 0.0
R5D 1.0
N23C 1.0
K14M 1.0
L17H 1.0
P11F 0.0
T18R 0.0
R15T 0.0
K8V 0.0
T4A 0.0
I16V 1.0
T4D 1.0
G3R 0.0
Q6K 0.0
D10L 0.0
T13R 0.0
T18G 0.0
N23A 0.0
P11Y 1.0
K12R 1.0
G3V 1.0
D10S 1.0
T4G 0.0
N23G 0.0
K14R 0.0
Q6C 0.0
L19Y 1.0
R5M 1.0
Q6E 1.0
P11S 0.0
Q6G 0.0
I16D 1.0
P11V 0.0
G3P 1.0
T13A 1.0
